Item-by-item account of TGI
test system: SW-620 colon; assay: NCI tumour cell line growth inhibition, 48 h
Unit µM implied. Number only.

Example entries and their recorded answers appear below.
Query :: Need TGI of Cc1c2ccc3ccccc3c2c[n+]2ccccc12 , thanks.
Result :: 80.5

Query :: Entry O=C1OCC2OC(=O)c3cc(O)c(O)c(O)c3-c3c(O)c(O)c(O)c4c3C(=O)OC(C2OC(=O)c2cc(O)c(O)c(O)c2-c2c1cc(O)c(O)c2O)C1OC(=O)C2C4=C(O)C(=O)C23Oc2cc(O)c4c(c2[C@H]13)O[C@H](c1ccc(O)c(O)c1)[C@@H](O)C4 (some centres undefined) please
Result :: 53.5

Query :: Entry CCOP(=O)(OCC)/C(C#N)=C/c1ccc(-c2cc(C(F)(F)F)cc(C(F)(F)F)c2)o1 please
Result :: 28.2

# input for lookup
Query :: Need TGI of Cc1c2c(C(N)=O)nccc2c(C)c2c1c1ccccc1n2Cc1ccccc1 , thanks.
Result :: 50

###

Item-by-item account of TGI
test system: OVCAR-5 ovarian; experiment: NCI tumour cell line growth inhibition, 48 h

Example entries and their recorded answers appear below.
Query :: Need TGI of C=CCCC1(C)CCCNC1=S (stereo unspecified) , thanks.
Result :: > 100 µM

Query :: Entry Cc1cc(C)nc(NC(P(=O)(O)O)P(=O)(O)O)n1 please
Result :: > 100 µM

Query :: Entry NC1(CCNC(=O)c2ccccc2)CCN(C(=O)c2ccccc2)CC1 please
Result :: > 100 µM

Query :: Entry C=C1CC[C@H]2C(=O)OC(c3ccoc3)C[C@]2(C)C/C=C\C=C/1C(=O)OC (stereo partly specified) please
Result :: > 25 µM

Further cases:
Query :: Need TGI of c1ccc2c(c1)OCCOCCOc1ccccc1OCCO2 , thanks.
Result :: > 100 µM

Query :: Entry Nc1nc(SCc2ccccc2Cl)c2[nH]cnc2n1 please
Result :: > 100 µM

###

tested on: SK-OV-3 ovarian; test: NCI tumour cell line growth inhibition, 48 h
Where a SMILES comes first, the peptide text is derived from it. The star is where a group is joined. Cbz = O=C(OCc1ccccc1)*
reported_endpoint: TGI

Example entries and their recorded answers appear below.
Query :: Need TGI of COc1cccc(CC(=O)N2CCN(CCCc3ccccc3)CC2)c1 , thanks.
Result :: > 100 µM

Query :: Entry Cc1c2ccc3ccccc3c2c[n+]2ccccc12 please
Result :: 83.2 µM

Query :: Entry Cc1n[n+](Cc2ccccc2)c2sc(N)nn12 please
Result :: > 100 µM

Query :: Entry O=C1/C(=C/N2N=C(c3ccc4ccccc4c3)CC2c2ccccc2O)SC(=S)N1c1cccnc1 (centres undefined) please
Result :: > 100 µM

Query :: Entry CCOC(=O)CCC(NC(=O)OCc1ccccc1)C(=O)NC(CCC(=O)OCC)C(=O)OCC (centres undefined) (Cbz-Glu(OEt)-Glu(OEt)-OEt; configuration not given here) please
Result :: > 100 µM

Query :: Entry CCCCC1Cc2cc(O)ccc2-c2nc3cc(O)ccc3n21 (centres undefined) (tested in a mixture with another compound) please
Result :: 40.4 µM

Query :: Entry CCCCCCCCCCCC(=O)OC[C@@H](C[As](=O)(O)O)OC(=O)CCCCCCCCCCC please
Result :: 26.2 µM

Query :: Entry COc1ccc(-c2noc(N)c2-c2cc(OC)c3c(c2)OCO3)cc1 please
Result :: > 38.3 µM

# input for lookup
Query :: Need TGI of CC(NC(=O)Cc1ccccc1)NC(=O)C(C)C(=O)NCc1ccccc1 (centres undefined) , thanks.
Result :: > 100 µM
